From: patent US10624871B2

Observed pIC50 for VIM-2 (Escherichia coli, UniProt Q5U7L7), reported per entry below.
pIC50: −log10 of the molar value.

Molecule: O=[N+]([O-])[O][Bi]([O][N+](=O)[O-])[O][N+](=O)[O-] [Bi(NO3)3]
pIC50: 5.61
--
Molecule: O=C([O-])CC([O-])(CC(=O)[O-])C(=O)[O-].O=C([O-])CC([O-])(CC(=O)[O-])C(=O)[O-].[Bi+3].[Bi+3].[K+] [Complex 10, colloidal bismuth subcitrate]
pIC50: 4.35

====

Tested on: E. coli (NDM-1+)
Experiment: Microdilution MIC and MBC assay, checkerboard FICI
Format: cell-based
Conditions: Bi(III) compound at 32 μg mL^−1, E. coli (NDM-1+)
Each item that follows carries a reported MIC of MER with Bi(III) compound.
Measure name: MIC of MER with Bi(III) compound

Molecule: CNC(=C[N+](=O)[O-])NCCSCc1ccc(CN(C)C)o1.O=C([O-])CC(O)(CC(=O)[O-])C(=O)[O-].[Bi+3] [RBC, ranitidine bismuth citrate]
Measured result: 2 µg/mL

Molecule: NCC(=O)[O-].NCC(=O)[O-].NCC(=O)[O-].[Bi+3] [Complex 18]
Measured result: 8 µg/mL

Molecule: O.O.O=C([O-])CN(CC(=O)[O-])CC(=O)[O-].[Bi+3] [Complex 11]
Measured result: 4 µg/mL

Molecule: [Bi+3].[O-]c1c([O-])c(Br)c(Br)c(Br)c1Br.[O-]c1c([O-])c(Br)c(Br)c(Br)c1Br [Complex 13]
Measured result: 1 µg/mL

====

Test system: E. coli (NDM-1+)
Test: Microdilution MIC and MBC assay, checkerboard FICI
Format: cell-based
Conditions: Bi(III) compound at 32 μg mL^−1, E. coli (NDM-1+)
Measure name: MIC of MER with Bi(III) compound (µg/mL)

Compound: O=[N+]([O-])[O][Bi]([O][N+](=O)[O-])[O][N+](=O)[O-] [Bi(NO3)3]
Measured result: 2
--
Compound: O=C([O-])CC([O-])(CC(=O)[O-])C(=O)[O-].O=C([O-])CC([O-])(CC(=O)[O-])C(=O)[O-].[Bi+3].[Bi+3].[K+] [Complex 10, colloidal bismuth subcitrate]
Measured result: 2
--
Compound: C1=CC2=C(c3ccccc3)c3ccc4[n]3[Bi+][n]3c(ccc3=C(c3ccccc3)C3=NC(=C4c4ccccc4)C=C3)=C(c3ccccc3)C1=N2 [Complex 1]
Measured result: 4
--
Compound: O=[N+]([O-])[O-].O=[N+]([O-])[O-].[Bi+3].c1ccc(-c2ccccn2)nc1.c1ccc(-c2ccccn2)nc1 [Complex 16]
Measured result: 2
--
Compound: O=C(O)c1ccccc1[S-].O=C([O-])c1ccccc1[S-].[Bi+3] [Complex 7]
Measured result: 1
